Tested on: 786-0 renal
Protocol Text: NCI tumour cell line growth inhibition, 48 h
Measured TGI, listed per entry for reference.

// worked examples, TGI included
Molecule	TGI
O=c1[nH]c(N/N=C\C(O)C(O)C(O)CO)nc2ccccc12 (stereo not given)	> 100 µM
O=C(CNc1ccc(Cl)cc1Cl)NC1C=Cc2ccc(S(=O)(=O)Nc3ccc(Cl)cc3Cl)cc2C1=O (stereo not given)	> 100 µM
C=C(C)C1CC=C(C)C2(C1)OCC(C)(C)C(C)O2 (stereo not given)	33 µM
CCN(CC)c1ccc2c(c1)Nc1cc(=C(C#N)C#N)c3ccccc3c1=N2	> 100 µM
Nc1cc(N2CCCC2)nc(=O)n1Cc1ccccc1	> 100 µM
NC(=O)c1ccc(C2C3=C(CCCC3=O)OC3=C2C(=O)c2ccccc2C3=O)cc1 (stereo not given)	2.33 µM

Which value of TGI has been reported for COc1cccc(-c2cc(=O)c3ccc(C)nc3[nH]2)c1 in the records?
> 100 µM

And the next one, CCOC(=O)c1cc(/C=C/C(C)=C/C(=O)OC)n(C)c1C ?
> 100 µM

And the next one, Oc1ccccc1-c1nc2c3ccccc3c3ccccc3c2[nH]1 ?
13.6 µM

And the next one, O=c1[nH]c2cc3[nH]c4ncccc4c(=O)c3cc2[nH]1 ?
> 10 µM

And the next one, CC(C)N(C)C(=O)C12C3C4C1C1C2C3C41C#N (stereo not given) ?
> 100 µM

And the next one, CN(C)C(=O)O[C@@H]1CN[C@@H](C#Cc2cc3ncnc(Nc4ccc(OCc5cccc(F)c5)c(Cl)c4)c3s2)C1 ?
> 21.7 µM

And the next one, Cc1ccc(N=Nc2c(C)c(C#N)c(=S)n(C3OC(CO)C(O)C(O)C3O)c2-c2ccccc2)cc1 (stereo not given) ?
49.8 µM

And the next one, Oc1ccc(CCc2cc(O)cc(O)c2)cc1 ?
> 100 µM

And the next one, CCOC(=O)C(CS)NC(=O)CCCCCCCC(=O)NC(CS)C(=O)OCC (stereo not given) ?
> 100 µM

###

Test system: SN12C renal
Protocol Text: NCI tumour cell line growth inhibition, 48 h
Measured TGI, listed per entry for reference.

// worked examples, TGI included
Compound	TGI
CCOC(=O)C(CS)NC(=O)CCCCCCCC(=O)NC(CS)C(=O)OCC (stereo unspecified)	> 100 µM
Cc1ccc(S(=O)(=O)N=Nc2c(O)[nH]c3c(Cl)cc(Cl)cc23)cc1	> 100 µM
Cc1ccc(N=Nc2c(C)c(C#N)c(=S)n(C3OC(CO)C(O)C(O)C3O)c2-c2ccccc2)cc1 (stereo unspecified)	> 100 µM
CC(=O)O[C@H]1C(=O)[C@@]2(C)[C@H]([C@H](OC(=O)c3ccccc3)[C@]3(O)C[C@H](OC(=O)[C@H](O)[C@@H](NC(=O)CC(C)(C)C)c4ccccc4)C(C)=C1C3(C)C)C1(OC(C)=O)CO[C@@H]1C[C@@H]2O (stereo partly specified)	> 10 µM
CN(Cc1cnc2nc(N)nc(N)c2n1)c1ccc(C(=O)NC(CCC(=O)NC(P(=O)(O)O)P(=O)(O)O)C(=O)O)cc1 (stereo unspecified)	> 100 µM
Cn1nc(S(N)(=O)=O)s/c1=N/C(N)=S	> 100 µM

Which value of TGI has been reported for COC(=O)c1c(-c2ccccc2)sc(-c2cccc3ccccc23)c1C(=O)OC in the records?
> 100 µM

And the next one, CCN1CSC(=S)N(CC)C1 ?
> 100 µM

And the next one, Cc1c(-c2ccccc2)c(C#N)c2nnc(C(N)=O)c(N)n12 ?
> 100 µM

And the next one, Cc1c(NC2(C)C(=O)N(/N=C/c3ccccc3)N=C2c2ccccc2)n[nH]c1-c1ccccc1 (stereo unspecified) ?
> 100 µM

And the next one, CN[C@@H]1C[C@H]2O[C@@](C)([C@@H]1OC)n1c3ccccc3c3c4c(c5c6ccccc6n2c5c31)C(=O)N[C@@H]4O ?
6.77 µM

And the next one, Cc1ccc(C(=O)/C(C#N)=C/Nc2c(C)n(C)n(-c3ccccc3)c2=O)cc1 ?
> 100 µM

Where do the numbers come from? From PubChem BioAssay (NCI).
